Test: RAM signaling pathway blockade in yeast – S. cerevisiae, Pdr1DBD-CYC8 efflux-inhibited sensitized strain, primary screen (AID 1298);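 also: 0% = DMSO untreated cells without growth and 100% = 10 µM 1-NA-PP1 full growth; higher means more yeast growth rescued from 5-FOA killing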
Conditions: S. cerevisiae cbk1-as DSE1-URA3 strain, 5-FOA growth OD615, 2 d; at 50 µM; stronger effect = higher value
Active and inactive are the calls of the source.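 The calls were made as follows: active = RAM network inhibition above 8.4% in each of two replicates, 3 SD over the compound average; inconclusive = above 8.4% inhibition in only one replicate; inactive = 8.4% inhibition or less in each replicate.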
result_type: RAM network inhibition

*Q* Can you look up the measured RAM network inhibition of CCC(C)NS(=O)(=O)c1ccc(NC(=O)c2c(-c3ccccc3)noc2C)cc1 (stereo not drawn) for me?
*A* 5.94% (inactive)

*Q* // returns reported RAM network inhibition for input CC12C(=O)N(c3cccc4cccnc34)C(=O)C1C1C=CC2C1 (stereo not drawn)
*A* 1.05% (inactive)

*Q* Requested field: RAM network inhibition. Item: COCCCNC(=O)Cn1ncc2ccsc2c1=O
*A* -0.97% (inactive)

*Q* Need RAM network inhibition, item Cc1c(C)n(CC(O)CN2CCCCCC2)c2ccccc12 (stereo not drawn)
*A* 1.09% (inactive)

*Q* Find the recorded RAM network inhibition belonging to COc1ccccc1CNC(=O)c1nnc(Cc2ccc(Cl)cc2)o1 and report it.
*A* 1.15% (inactive)

*Q* For the compound shown here, CCOC(=O)C1=C(SCC(=O)Nc2ccccc2)NC(=O)C(C#N)C12CCCCC2 (stereo not drawn) , give the reported RAM network inhibition.
*A* 2.44% (inactive)

*Q* # get_value(readout='RAM network inhibition', item= COc1ccccc1N=C(C)C1=C(O)CSC1=O )
*A* 6.89% (inactive)

*Q* Form field: reported RAM network inhibition of Cn1c(SCC(=O)NCC2CCCO2)nc2c([nH]c3ccccc32)c1=O (stereo not drawn)
*A* 2.79% (inactive)

*Q* I would be grateful if you could share the reported RAM network inhibition for Oc1ccccc1CNc1nc2ccccc2n1CCN1CCCCC1 .
*A* 1.77% (inactive)

*Q* Requested field: RAM network inhibition. Item: COC(=O)c1ccc(NC(=O)Cn2nc(SC)n(N)c2=S)cc1
*A* 7.07% (inactive)

*Q* Any idea what its RAM network inhibition is? The compound is COc1ccc(S(=O)(=O)Nc2ccc3oc(C)c(C(=O)O)c3c2)cc1
*A* 3.39% (inactive)

*Q* Query (compound): CC(=O)c1c(N2CCN(c3ccccc3)CC2)nc(=S)n(-c2ccccc2)c1C ; field requested: RAM network inhibition
*A* 6.47% (inactive)

*Q* Could you tell me which RAM network inhibition is on file for OC(COc1cccc2ccccc12)CN1CCN(c2ccccn2)CC1 (stereo not drawn) ?
*A* 2.59% (inactive)

*Q* Need RAM network inhibition, item Cc1cccc(C(=O)Nc2cc(=O)n(C)c(=O)n2C)c1
*A* 1.04% (inactive)

*Q* Need RAM network inhibition of CCCCOc1cccc(C2(C(=O)O)CCCC2)c1 , thanks.
*A* 4.01% (inactive)

*Q* // returns reported RAM network inhibition for input Cc1ccc(-c2nc(CS(=O)CC(=O)NCc3ccccc3)c(C)o2)cc1 (stereo not drawn)
*A* 6.78% (inactive)

*Q* Form field: reported RAM network inhibition of C=CCC(=O)OCC(=O)Nc1ccc(Oc2ccccc2)cc1
*A* -0.31% (inactive)

*Q* GET /values?readout=RAM network inhibition&item= Cc1nc(CNS(=O)(=O)c2ccc3c(c2)CCCC3)cs1
*A* 0.22% (inactive)

*Q* What value of RAM network inhibition has been reported for the following compound? COC(=O)C1=C(C)N(C)C(=O)NC1c1ccc(O)c(OC)c1 (stereo not drawn)
*A* 6.2% (inactive)

*Q* Look at this compound and give its reported RAM network inhibition. O=C(CCc1ccccc1)Nc1nnc(-c2cccs2)o1
*A* 3.35% (inactive)

*Q* Tell me the measured RAM network inhibition of CCOC(=O)c1[nH]c(=O)[nH]c1COC(=O)c1cc2ccccc2o1 , please.
*A* 2.38% (inactive)

*Q* So what's the measured RAM network inhibition for this one? COc1ccccc1Nc1nc(N)nc(CN2CCOCC2)n1
*A* 3.74% (inactive)

*Q* // query RAM network inhibition value for entry c1ccc(Cn2ncc3c(N4CCCCC4)ncnc32)cc1
*A* 3.67% (inactive)

*Q* Please report the recorded RAM network inhibition for COc1ccc(NC(=O)C2CCCN(S(=O)(=O)c3cccc4cccnc34)C2)c(OC)c1 (stereo not drawn) .
*A* 9.52% (inactive)

*Q* Sample COC(=O)C1=C(O)CSC1=Nc1cccc(C(F)(F)F)c1 — what was its RAM network inhibition?
*A* 3.1% (inactive)

*Q* // RAM network inhibition lookup, key: Cc1nc2sc(C(c3ccco3)N3CCC(C)CC3)c(O)n2n1 (stereo not drawn)
*A* 2.81% (inactive)

*Q* RAM network inhibition lookup needed for COc1ccc(Nc2ncnc3c2oc2ccccc23)cc1 , thanks.
*A* 4.44% (inactive)

*Q* What does the data say about its RAM network inhibition? Entry: COc1cccc(C2=NOC(C(=O)N3CCN(C(=O)c4ccco4)CC3)C2)c1 (stereo not drawn)
*A* 0.01% (inactive)

*Q* Reported RAM network inhibition, compound COc1ccc(N(CC(=O)NCc2cccnc2)S(=O)(=O)c2c(C)nn(C)c2C)cc1 : ____
*A* 7.6% (inactive)

*Q* Suppose we examine the compound Cc1ccc(C(C)C)c(OCC(=O)N2CCOCC2)c1 ; what RAM network inhibition value has been reported?
*A* 1.97% (inactive)

*Q* Would you kindly share the measured RAM network inhibition for O=C(C1CCCN(S(=O)(=O)c2ccccc2)C1)N1CCCCCC1 (stereo not drawn) ?
*A* 4.15% (inactive)

*Q* Query: RAM network inhibition; subject: O=C(CCCCn1c(=O)[nH]c2ccccc2c1=O)NC1CCN(Cc2ccccc2)CC1
*A* 0.63% (inactive)

*Q* Suppose we examine the compound COC(=O)c1ccc(CSc2nc3c(c(=O)n2-c2ccc(F)cc2)SCC3)o1 ; what RAM network inhibition value has been reported?
*A* 1.52% (inactive)

*Q* Look up RAM network inhibition: O=C(NCCCNC(=O)c1cccs1)c1cccs1
*A* 5.26% (inactive)

*Q* What value of RAM network inhibition has been reported for the following compound? CCN(CC)C(=O)c1sc(NC(=O)c2ccoc2C)c(C(=O)OC)c1C
*A* 7.43% (inactive)

*Q* Bench note: what RAM network inhibition did O=C(Nc1nnc(-c2ccc3c(c2)CCCC3)o1)C1CCCCC1 show?
*A* 4.48% (inactive)

*Q* Recorded RAM network inhibition of CCNc1nc2c(c(=O)[nH]c(=O)n2C)n1Cc1ccc(F)cc1 , please.
*A* 4.88% (inactive)

*Q* Recorded RAM network inhibition for Cn1c(=O)oc2cc(S(=O)(=O)N3CCC(N4CCCCC4)CC3)ccc21 , please?
*A* 1.06% (inactive)

###

Assay: growth suppression of beta-catenin knockout HCT116, pilot screen, human colon tumor cells (AID 823);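 also: 0% = wells killed by 20 µM Hyamine and 100% = untreated DMSO cell wells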
Conditions: CellTiter-Glo, 60 h, at 10 µM, stronger effect = lower value
Records with an inconclusive call do not appear.
Kindly supply the reported viability values for the records listed here.
Output spec: scalar in %, unitless text.

*Q* Entry CCOC(=O)c1ccc(NC(=O)C2CCN(S(=O)(=O)c3ccccc3)CC2)cc1 : reported viability = ?
*A* 66.4

*Q* For the compound O=C1CCCCCN1Cc1nnc(SCc2nc3ccccc3s2)n1-c1ccccn1 , what viability is on record?
*A* 91.7

*Q* What does the record list as viability for COc1ccc(CNC(=O)c2cc(C3CC3)on2)cc1 ?
*A* 94.3

*Q* What value of viability has been recorded for this entry: COc1ccc(N=CC2=C(O)CC(C)(C)CC2=O)cc1
*A* 97.5

*Q* Dear colleague, I am looking for the recorded viability of the following compound: CCOC(=O)c1ccc(NC(=O)c2nccnc2C(=O)O)cc1
*A* 98.1

*Q* Record request: viability value, item CCCc1nc(SCC(=O)Nc2cc(C)on2)c2c(=O)n(C)c(=O)n(C)c2n1
*A* 97.1

*Q* Please look up its viability: CC(CNC(=O)c1ccc(Br)o1)NC(=O)c1ccc(Br)o1 (centres undefined)
*A* 99

*Q* Entry O=C(O)CN(Cc1ccco1)S(=O)(=O)c1ccccc1 has what viability?
*A* 95.7

*Q* // returns reported viability for input COCCNC(=O)c1cc(-c2ccc(Cl)c(Cl)c2)on1
*A* 82.5

###

Hi there, I'd appreciate the recorded viability for every entry that follows.
Assay: growth suppression of PTEN-deleted HCT116, pilot screen, cell-based, HCT116 clonal line, CellTiter-Glo (AID 824);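 also: 0% = 20 µM Hyamine control and 100% = vehicle cell control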
Conditions: 60 h, at 10 µM, stronger effect = lower value
Records with an inconclusive call do not appear.
// units = %; emit number, no label

*Q* Quick one: viability of CCCS(=O)(=O)c1nc(S(=O)(=O)c2ccc(C)cc2)c(NCCN2CCOCC2)s1 ?
*A* 86.7

*Q* Value lookup for viability; key = COc1ccc(CC(=O)Nc2oc(-c3ccccc3)c(-c3ccccc3)c2C#N)cc1OC
*A* 68.2

*Q* Quick check: viability of O=C(O)CN(Cc1ccco1)S(=O)(=O)c1ccccc1 ?
*A* 98.3

*Q* Can you share its viability? I mean this compound: NC(=O)SCC(=O)Nc1ccc(Cl)c(Cl)c1
*A* 42.8

*Q* Given the compound CCOC(=O)CSc1nc(N)nc(C)c1Br , what is its reported viability?
*A* 104

*Q* Would you mind telling me what viability value was observed for COc1cccc(N2C(=O)Nc3ccccc3C2(O)C(=O)NCc2ccc3c(c2)OCO3)c1 (stereo not drawn) ?
*A* 99.7

*Q* viability lookup needed for COc1ccccc1NC(=O)c1cccc(S(=O)(=O)N2CCOCC2)c1 , thanks.
*A* 96.7

*Q* For O=C(NCC1CCCO1)c1nnc(Cc2ccc(F)cc2)o1 (stereo not drawn) , what is its reported viability?
*A* 99.4

*Q* What value of viability has been recorded for this entry: Cc1ccc(-c2nc(C#N)c(NCCN3CCCCC3)o2)cc1
*A* 92.5

*Q* Which viability reading was recorded for the compound CCCc1cc(C(=O)NCc2ccc(OC)cc2)no1 ?
*A* 99.3

*Q* Would you kindly share the measured viability for CC1(C)Nc2ccccc2N(CCC(=O)N2CCOCC2)C1=O ?
*A* 96.4

*Q* Look at this compound and give its reported viability. O=C(CCSCCC(=O)NCc1cccs1)NCc1cccs1
*A* 96.3

*Q* Form field: reported viability of COc1cc(C2C3=C(CC(C)(C)CC3=O)N(C)C(=O)N2C)cc(OC)c1OC (stereo not drawn)
*A* 103

meta.source: PubChem BioAssay
